- test-description: NCI Yeast Anticancer Drug Screen. Data for the sgs1 mgt1 strain (AID 161);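 note: 0% = growth of cultures given vehicle only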
- experimental-setup: S. cerevisiae sgs1 mgt1 strain, at 5.0 µM (retest, dose inferred, filed as 0.5), hits give high values
The panel holds about 79,000 compounds, 15% with a hit somewhere; the sample as a whole holds those more often. Activity calls are given as the source filed them. Cut-off read from the data, not from the text of the source: active = growth inhibition above about 70%; inactive = the rest.
recorded-endpoint: growth inhibition

INSERT INTO assay_data (compound, recorded_endpoint, observed_value) VALUES
  ('CCC(C)(C)C(=O)OCC(=O)c1ccc(-c2ccccc2)cc1', 'growth inhibition', '2% (inactive)');

Could I get growth inhibition for every one of these entries?
1. O=C(COC(=O)C(c1ccccc1)c1ccccc1)c1ccc(Br)cc1
2. O=C(O)CCCc1ccc2c(c1)CC1(C2)Cc2ccc(CCCC(=O)O)cc2C1
3. CC1=C(C(=O)OCCO[N+](=O)[O-])C(c2cccc([N+](=O)[O-])c2)C(C(=O)OC(C)C)=C(C)N1 (stereo not drawn)
4. COc1cc2c(cc1OC(C)=O)C(=O)C(Br)(Br)CCC2
5. COc1cc(OC)cc(C2SCC(=O)N2c2nncs2)c1 (stereo not drawn)
6. OC(C1CCCC1=N/N=C1/CCCC1C(O)(C(F)(F)Cl)C(F)(F)Cl)(C(F)(F)Cl)C(F)(F)Cl (stereo not drawn)

Reply |
1. 0% (inactive)
2. 27% (inactive)
3. -22% (inactive)
4. 88% (active)
5. 0% (inactive)
6. -4% (inactive)

Could I get growth inhibition for every one of these entries?
1. CCOc1ccc(C(=O)CCN2CCOCC2)cc1
2. CSc1ccc(/C=C2/C[N+](C)(C)C/C(=C/c3ccc(SC)cc3)C2=O)cc1
3. Cn1c2c(c3nc(N)nc(N)c3c1=O)CCc1ccccc1-2
4. c1ccc(SSc2ccccc2)cc1
5. Cc1ccc2ccc3c(CCN(C)C)cc4c(c3c2c1O)OCO4
6. O=C(c1cc2c(C(F)(F)F)onc2c2ccccc12)C(F)(F)F
7. Oc1cccc2ccncc12

Reply |
["20% (inactive)", "34% (inactive)", "8% (inactive)", "0% (inactive)", "-1% (inactive)", "-8% (inactive)", "3% (inactive)"]

Could I get growth inhibition for every one of these entries?
1. CSc1ccc(C(=O)C(=O)c2ccc(SC)s2)s1
2. CC(C)C1=CC23CCC4C(C)(C(=O)O)CCCC4(C)C2CC1c1c(O)ccc(O)c13 (stereo not drawn)
3. Cc1ccc(Nc2nc(C)c(C(=O)C/C(=N\NC(N)=S)C(=O)Nc3ccc(Cl)cc3C)s2)cc1
4. CCC[N+]1=C(/C=C/c2ccc3cccnc3c2O)C(C)(C)c2ccccc21
5. COC(=O)CCN1c2ccccc2Sc2ccccc21

Reply |
1: 14% (inactive); 2: 51% (inactive); 3: -3% (inactive); 4: 10% (inactive); 5: -13% (inactive)

* * *

- test-description: NCI Yeast Anticancer Drug Screen. Data for the bub3 strain (AID 167)
- experimental-setup: S. cerevisiae bub3 mutant strain, at 5.0 µM (retest, dose inferred, filed as 0.5), hits give high values
About 79,000 compounds went through this panel and 15% of them were active in at least one assay; those are over-represented in the sample as a whole. Activity calls are given as the source filed them. No stated cut-off is given here; in the data, active means growth inhibition above about 70%; inactive means the rest.
So I've got a bunch of compounds here, and I need their growth inhibition values.

INSERT INTO results (compound, observed_value) VALUES
  ('O=C(c1cccs1)N(C(=S)N1CCN(c2ccccn2)CC1)C1CCCCC1', '2% (inactive)');

Could I get growth inhibition for every one of these entries?
1. COC(=O)/C=C/c1c2ccccc2cc2ccccc12
2. Cc1nc(Nc2ccc(Cl)cc2)sc1C(=O)Nc1cccc2c(=O)[nH][nH]c(=O)c12
3. S=c1[nH]nc(SCc2ccc(Cl)c(Cl)c2)c2[nH]cnc12
4. COc1ccc(C2C3CCCC(C3=O)C(c3ccc(OC)cc3)N2N=O)cc1 (stereo unspecified)
5. O=C(Oc1c(I)ccccc1=O)c1ccc([N+](=O)[O-])cc1
6. Oc1c(Br)ccc2c(O)c(Br)ccc12

Reply |
9% (inactive)
11% (inactive)
-8% (inactive)
-2% (inactive)
21% (inactive)
53% (inactive)

Could I get growth inhibition for every one of these entries?
1. COc1ncnc2nc(SC)[nH]c12
2. Cc1ccc(C)c(N(c2ccccc2[N+](=O)[O-])S(C)(=O)=O)c1
3. C[C@H](CCC1=NCCN1)[C@H]1CC[C@H]2[C@@H]3[C@H](O)C[C@@H]4C[C@H](O)CC[C@]4(C)[C@H]3CC[C@]12C

Reply |
["-1% (inactive)", "-2% (inactive)", "0% (inactive)"]

Ask | Could you please provide reported growth inhibition for CC12CC[C@@H](C(C)(C)O)C1[C@@H](O)CC1(C)C2CCC2[C@@]3(C)CC[C@H](O)C(C)(C)C3C(O)C[C@]21C (stereo partly specified) ? Thanks!
Reply | 15% (inactive)

The values you see were collected from PubChem BioAssay (NCI).
